Here, each record is paired with measured kd ratio pH 7.4/6.0 data.
- MEASURED ON: T1, cyno FcRn/b2M (cyno, UniProt Q8SPV9 24-297; Q8SPW0 21-119, biotinylated)
- T1 construct: bought recombinant biotinylated protein (Immunitrack ITF05 or ACRO FCM-C82W5); also called cFcRn; cFcRn/cb2M
- TEST DESCRIPTION: SPR off-rate; pH 7.4 vs pH 6.0;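 note: surface plasmon resonance with diluted periplasmic extracts flowed over ligand surfaces, 120 s association and 600–3600 s dissociation at 25 °C, running buffer containing 150 mM NaCl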
Just the number, please, no unit attached.

T0263018B11 F29V (VHH, name in Kabat numbering, FLAG3-His6 tagged) VHH: EVQLVESGGGVVQPGGSLRLSCAASGFTVSSYAMYWVRQAPGKGLEWVSAISSGGGSTDYADSVKGRFTISRDNSKNTLYLQMNSLRPEDTALYYCAADTLYTSLTWYSYWGQGTLVTVSS = 54

Answer with the recorded kd ratio pH 7.4/6.0 of T0263018B11 S31Q (VHH, name in Kabat numbering, FLAG3-His6 tagged) VHH: EVQLVESGGGVVQPGGSLRLSCAASGFTFSQYAMYWVRQAPGKGLEWVSAISSGGGSTDYADSVKGRFTISRDNSKNTLYLQMNSLRPEDTALYYCAADTLYTSLTWYSYWGQGTLVTVSS only.
79

Answer with the recorded kd ratio pH 7.4/6.0 of T0263018B11 T96V (VHH, name in Kabat numbering, FLAG3-His6 tagged) VHH: EVQLVESGGGVVQPGGSLRLSCAASGFTFSSYAMYWVRQAPGKGLEWVSAISSGGGSTDYADSVKGRFTISRDNSKNTLYLQMNSLRPEDTALYYCAADVLYTSLTWYSYWGQGTLVTVSS only.
40

Answer with the recorded kd ratio pH 7.4/6.0 of T0263018B11 A94S (VHH, name in Kabat numbering, FLAG3-His6 tagged) VHH: EVQLVESGGGVVQPGGSLRLSCAASGFTFSSYAMYWVRQAPGKGLEWVSAISSGGGSTDYADSVKGRFTISRDNSKNTLYLQMNSLRPEDTALYYCASDTLYTSLTWYSYWGQGTLVTVSS only.
43
